Sourced from ChEMBL document CHEMBL5223136

Entries and their CLint scaled values follow.
# PROCEDURE_DETAILS: Microsomal stability in human liver microsomes assessed as intrinsic clearance and measured upto 60 mins in presence of NADPH by LC-MS/MS analysis
# Assay type: ADME, Microsome
# DETAILS: read-out: CLH

{"MOLECULE": "O=C1CCC(N2Cc3ccc(OS(=O)(=O)F)cc3C2=O)C(=O)N1 (stereo not drawn)", "CLint scaled": "< 6.1 mL/min/kg"}
{"MOLECULE": "O=C1CCC(N2Cc3ccccc3C2=O)C(=O)N1 (stereo not drawn)", "CLint scaled": "< 6.1 mL/min/kg"}
{"MOLECULE": "O=C1CCC(N2Cc3ccc(S(=O)(=O)F)cc3C2=O)C(=O)N1 (stereo not drawn)", "CLint scaled": "13.7 mL/min/kg"}
